Hey, just so you know, these numbers are from patent US20200024322A1.

- Subject Of Test: T1, human glucagon receptor (human, UniProt P47871 26-477)
- T1 construct: whole, on cells; also called hGcgR; GcgR
- Test Details: [125I]-Gcg competition SPA, hGcgR membranes
Record form. Attribute: Ki. Fill in for each entry.

## Input Suppose we examine the binder YXEGTXTSDYSIXLDEKAQXEFIXYLIEGGPSSGAPPPS (Aib2; αMeF6; αMeL13; K17((2-[2-(2-Amino-ethoxy)-ethoxy]-acetyl)2-(γ-Glu)-CO-(CH2)16-CO2H); Aib20; D-Glu24; C-terminal NH2) [Example 213] ; what Ki value has been reported?
## Output 544 nM

## Input Suppose we examine the binder YXEGTXTSDYSIXLDXKAQXEFIXYLIEGGPSSGAPPPS (Aib2; αMeF(2F)6; αMeL13; Dab16; K17((2-[2-(2-Amino-ethoxy)-ethoxy]-acetyl)2-(γ-Glu)-CO-(CH2)18-CO2H); Aib20; D-Glu24; C-terminal NH2) [Example 217] ; what Ki value has been reported?
## Output 516 nM

## Input Suppose we examine the binder YXEGTXTSDYSILLDKKAQXAFIEYLIAGGPSSG (Aib2; αMeF6; K17((2-[2-(2-Amino-ethoxy)-ethoxy]-acetyl)2-(γ-Glu)-CO-(CH2)16-CO2H); Aib20; C-terminal NH2) [Example 309] ; what Ki value has been reported?
## Output 64.1 nM

## Input Suppose we examine the binder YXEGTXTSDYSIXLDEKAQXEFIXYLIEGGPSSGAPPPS (Aib2; αMeF(2F)6; αMeL13; K17((2-[2-(2-Amino-ethoxy)-ethoxy]-acetyl)2-CO-(CH2)16-CO2H); Aib20; D-Glu24; C-terminal NH2) [Example 214] ; what Ki value has been reported?
## Output 126 nM

## Input Suppose we examine the binder YXEGTXTSDLSIXLDXKAQXTFIXXLIEGGPSSGAPPPS (Aib2; αMeF(2F)6; αMeL13; Orn16; K17((2-[2-(2-Amino-ethoxy)-ethoxy]-acetyl)2-(γ-Glu)-CO-(CH2)16-CO2H); Aib20; D-Glu24; αMeY25; C-terminal NH2) [Example 243] ; what Ki value has been reported?
## Output 145 nM

## Input Suppose we examine the binder XXEGTXTSDYSILLDKKAQXAFIEYLIEGGPSSGAPPPS (D-Tyr1; Aib2; αMeF6; K17((2-[2-(2-Amino-ethoxy)-ethoxy]-acetyl)2-(γ-Glu)-CO-(CH2)18-CO2H); Aib20; C-terminal NH2) [Example 329] ; what Ki value has been reported?
## Output 17 nM

## Input Suppose we examine the binder YXEGTXTSDYSILLDKKAQXEFIEYLIEGGPSSG (Aib2; αMeF(2F)6; K17((2-[2-(2-Amino-ethoxy)-ethoxy]-acetyl)2-(γ-Glu)-CO-(CH2)16-CO2H); Aib20; C-terminal NH2) [Example 312] ; what Ki value has been reported?
## Output 106 nM

## Input Suppose we examine the binder YXEGTXTSDYSILLDKKAQXEFIEYLIAGGPSSG (Aib2; αMeF6; K17((2-[2-(2-Amino-ethoxy)-ethoxy]-acetyl)2-(γ-Glu)-CO-(CH2)16-CO2H); Aib20; C-terminal NH2) [Example 310] ; what Ki value has been reported?
## Output 174 nM

## Input Suppose we examine the binder YXEGTXTSDXSIXLDXKAQXEFIXXLIEGG (Aib2; αMeF(2F)6; 4Pal10; αMeL13; Orn16; K17((2-[2-(2-Amino-ethoxy)-ethoxy]-acetyl)2-(γ-Glu)-CO-(CH2)16-CO2H); Aib20; D-Glu24; αMeY25; C-terminal NH2) [Example 265] ; what Ki value has been reported?
## Output 567 nM

## Input Suppose we examine the binder YXEGTXTSDYSIXLDEKAQXEFIXYLIEGGPSSG (Aib2; αMeF(2F)6; αMeL13; K17((2-[2-(2-Amino-ethoxy)-ethoxy]-acetyl)2-(γ-Glu)-CO-(CH2)16-CO2H); Aib20; D-Glu24; C-terminal NH2) [Example 219] ; what Ki value has been reported?
## Output 373 nM

## Input Suppose we examine the binder YXEGTXTSDYSILLDEKAQXAFIEYLIEGGPSSG (Aib2; αMeF6; K17((2-[2-(2-Amino-ethoxy)-ethoxy]-acetyl)2-(γ-Glu)-CO-(CH2)16-CO2H); Aib20; C-terminal NH2) [Example 307] ; what Ki value has been reported?
## Output 117 nM

## Input Suppose we examine the binder YXEGTXTSDYSIXLDKKAQXEFIXYLIEGGPSSGAPPPS (Aib2; αMeF(2F)6; αMeL13; K17((2-[2-(2-Amino-ethoxy)-ethoxy]-acetyl)2-(γ-Glu)-CO-(CH2)16-CO2H); Aib20; D-Glu24; C-terminal NH2) [Example 231] ; what Ki value has been reported?
## Output 440 nM

## Input Suppose we examine the binder XXEGTFTSDYSIXLDKKAQXEFIEXLIAGGPSSGAPPPS (D-Tyr1; Aib2; αMeL13; K17((2-[2-(2-Amino-ethoxy)-ethoxy]-acetyl)2-(γ-Glu)-CO-(CH2)18-CO2H); Aib20; αMeY25; C-terminal NH2) [Example 292] ; what Ki value has been reported?
## Output 595 nM
